Target: BCL-XL (Homo sapiens)
Construct: endogenous in cells; host or cells: MOLT-4
Sequence (Q07817 whole entry): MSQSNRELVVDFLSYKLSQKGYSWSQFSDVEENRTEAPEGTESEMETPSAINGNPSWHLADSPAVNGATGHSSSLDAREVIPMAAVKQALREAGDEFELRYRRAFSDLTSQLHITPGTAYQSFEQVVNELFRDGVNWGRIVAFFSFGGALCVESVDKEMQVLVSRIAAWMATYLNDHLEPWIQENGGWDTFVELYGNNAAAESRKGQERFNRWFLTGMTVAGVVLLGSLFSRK
Experiment: Bcl-xL ELISA degradation in MOLT-4 cells, 6 h
Format: cell-based
Conditions: read-out: Bcl-xL ELISA in MOLT-4 degradation 6 h: Mean external-Abs DC50
observation_type: DC50

A selection of reference data follows.
Sure, the documented DC50 for Cc1ncsc1-c1ccc(CNC(=O)[C@@H]2C[C@@H](O)CN2C(=O)[C@H](c2cc(N3CC4(CN(C(=O)CCCCC(=O)N(C)CC#Cc5ccc(OCCCc6ccc(N7CCc8cccc(C(=O)Nc9nc%10ccccc%10s9)c8C7)nc6C(=O)O)c(F)c5)C4)C3)no2)C(C)C)cc1 [I-192] is > 1000 nM

Sure, the documented DC50 for Cc1cc(N2CCC(C(=O)N[C@H](C(=O)N3C[C@H](O)C[C@H]3C(=O)N[C@@H](C)c3ccc(-c4scnc4C)cc3)C(C)(C)C)CC2)ccc1S(=O)(=O)NC(=O)c1nc(N2CCc3cccc(C(=O)Nc4nc5ccccc5s4)c3C2)ccc1-c1cnn(CC2CCCCC2)c1C [I-275] is 10 to 100 nM

Sure, the documented DC50 for Cc1ncsc1-c1ccc([C@H](C)NC(=O)[C@@H]2C[C@@H](O)CN2C(=O)[C@@H](NC(=O)CCCCCS(=O)(=O)NC(=O)c2nc(N3CCc4cccc(C(=O)Nc5nc6ccccc6s5)c4C3)ccc2-c2ccnc(OC(C)C)c2C)C(C)(C)C)cc1 [I-315] is 10 to 100 nM

Please state, for each entry, its recorded DC50.
1. Cc1cc(N(C)c2ccc(-c3cnn(CC4CCCC4)c3C)c(C(=O)NS(=O)(=O)c3ccc(N4CCC(C(=O)N[C@H](C(=O)N5C[C@H](O)C[C@H]5C(=O)N[C@@H](C)c5ccc(-c6scnc6C)cc5)C(C)(C)C)CC4)cc3)n2)nnc1Nc1nc2cccnc2s1 [I-457]
2. Cc1ncsc1-c1ccc([C@H](C)NC(=O)[C@@H]2C[C@@H](O)CN2C(=O)[C@@H](NC(=O)CCCCCS(=O)(=O)NC(=O)c2nc(N3CCc4cccc(C(=O)Nc5nc6ccccc6s5)c4C3)ccc2-c2cccc(OC(C)C)c2C)C(C)(C)C)cc1 [I-309]
3. C#Cc1ccc(CNC(=O)[C@@H]2C[C@@H](O)CN2C(=O)[C@@H](c2cc(N3CCN(c4ccc(S(=O)(=O)NC(=O)c5nc(N6CCc7cccc(C(=O)Nc8nc9ccccc9s8)c7C6)ccc5-c5cnn(CC6CCCCC6)c5C)cc4)CC3)no2)C(C)C)cc1 [I-262]
4. Cc1ncsc1-c1ccc(CNC(=O)[C@@H]2C[C@@H](O)CN2C(=O)[C@@H](NC(=O)C2CCN(c3ccc(S(=O)(=O)NC(=O)c4nc(N5CCc6cccc(C(=O)Nc7nc8ccccc8s7)c6C5)ccc4-c4cnn(CC5CCCCC5)c4C)cc3F)CC2)C(C)(C)C)cc1 [I-329]

Reply:
1. 500 to 1000 nM
2. 100 to 500 nM
3. < 10 nM
4. 10 to 100 nM

Please state, for each entry, its recorded DC50.
1. C#Cc1ccc([C@H](COC)NC(=O)[C@@H]2C[C@@H](O)CN2C(=O)[C@@H](NC(=O)CCCCCS(=O)(=O)NC(=O)c2nc(N3CCc4cccc(C(=O)Nc5nc6cccnc6s5)c4C3)ccc2-c2cnn(CC3CCCCC3)c2C)C(C)(C)C)cc1 [I-478]
2. Cc1ncsc1-c1ccc(CNC(=O)[C@@H]2C[C@@H](O)CN2C(=O)[C@@H](NC(=O)C2(F)CC2)C(C)(C)C)c(OCC2CN(C3CCC(NC(=O)c4nc(N5CCc6cccc(C(=O)Nc7nc8ccccc8s7)c6C5)ccc4-c4cnn(CC5CCCCC5)c4C)CC3)C2)c1 (stereo partly drawn) [I-216]
3. Cc1ncsc1-c1ccc(CNC(=O)[C@@H]2C[C@@H](O)CN2C(=O)[C@@H](NC(=O)CCCCCS(=O)(=O)NC(=O)c2nc(N3CCc4cccc(C(=O)Nc5nc6cccnc6s5)c4C3)ccc2-c2cnn(CC(C)(C)C)c2C)C(C)(C)C)cc1 [I-467]

Reply:
< 10 nM
> 1000 nM
100 to 500 nM

Please state, for each entry, its recorded DC50.
1. Cc1ncsc1-c1ccc([C@H](C)NC(=O)[C@@H]2C[C@@H](O)CN2C(=O)[C@@H](NC(=O)CCCCS(=O)(=O)NC(=O)c2nc(N3CCc4cccc(C(=O)Nc5nc6ccccc6s5)c4C3)ccc2-c2cnn(CC3CCCCC3)c2C)C(C)(C)C)cc1 [I-317]
2. Cc1ncsc1-c1ccc([C@H](C)NC(=O)[C@@H]2C[C@@H](O)CN2C(=O)[C@@H](NC(=O)CCCCCS(=O)(=O)NC(=O)c2nc(N3CCc4cccc(C(=O)Nc5nc6ccccc6s5)c4C3)ccc2-c2ccnc(N(C)C(C)C)c2C)C(C)(C)C)cc1 [I-333]

Reply:
10 to 100 nM
100 to 500 nM

Values compiled from patent US20250197387A1.
